# MEASURED ON: SARS-CoV-2 spike RBD, wild type (SARS-CoV-2 (wild type), UniProt P0DTC2 319-541)
# ASSAY: flow cytometry, RBD-coated Ni beads; room temperature; apparent (covalent cross-link); SPR: PBS + 5 mM MgCl2, 300 mM NaCl, 400 nM BLib, 2 ug/mL salmon sperm DNA, 25 C; flow cytometry in binding buffer, RT; neutralization in 10% FBS, 37 C; cross-linking in PBS pH 7.4 (SI: HEPES), RT
# ASSAY SETUP: protein: commercial
PROPERTY NAME: Kd (nM)
The figure you give is taken to be in nM; do not add the unit.

Consider the binder ATTACCGATGGCTTGTTTGTAATGTAGGGTTCCGTCGGAT (ssDNA, 5' NH2 conjugated to disuccinimidyl suberate (NHS ester)) [NHS-RApt (CRApt)] . State its measured Kd.
0.24

Each recorded value in this set is attributed to paper PMC9881204.
